B1: F1*; the commonest letter at each place (parent)
chain: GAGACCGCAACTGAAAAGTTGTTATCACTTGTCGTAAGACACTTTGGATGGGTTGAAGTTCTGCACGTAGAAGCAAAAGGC

# Variants of: B1
# Test method notes: fraction ligated after 30 min (ligated reads / total reads); higher = more ligase activity
# Condition info: with F1*sub RNA substrate (template-directed ligation), 42 °C
Parameter: fraction ligated
// return a plain number; no unit text

Before answering, review these 10 worked examples.
Using the record for G34A G46T , report its fraction ligated.
0.778

Using the record for T43A A56G , report its fraction ligated.
0.782

Using the record for A27C A56T , report its fraction ligated.
0.787

Using the record for T30A C42A , report its fraction ligated.
0.815

Using the record for T30C G34T , report its fraction ligated.
0.787

Using the record for C33G T44G , report its fraction ligated.
0.808

Using the record for T30C C33A , report its fraction ligated.
0.824

Using the record for T44C G55A , report its fraction ligated.
0.815

Using the record for C28T C33T , report its fraction ligated.
0.822

Using the record for T43G , report its fraction ligated.
0.822

Let us move to another entry and its fraction ligated.
Using the record for C26T A27T , report its fraction ligated.
0.808
